test_details: YAP1 pathway inhibitors via CTGF transcript, primary screen, DLD1 colon cancer cells, RT-qPCR, single point (AID 743449);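 also: 0% = neutral control wells and 100% = dasatinib control wells; higher means stronger suppression of CTGF expression like dasatinib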
test_context: DLD1 CTGF mRNA qPCR, 24 h; at 12.5 µM
Screen size: about 9,900 compounds; about 90 (0.9%) were called active. Roughly 2% stayed inconclusive and do not appear here.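 The calls were made as follows: active = mean normalized replicate activity at least 50 and at least half of replicates each reaching 50; inconclusive = only one of the two criteria met; inactive = neither criterion met.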 The list comes from a sample in which actives are over-represented; it also holds close analogues and randomly drawn compounds.
Please answer using one outcome listed in 1.0 for active, 0.0 for inactive

Tell me the assay call for `COc1ccccc1C#Cc1ccc([C@H]2[C@H](CO)N3CCCCN(C(=O)C4CCC4)C[C@@H]23)cc1` please.
1.0

// query: C[C@H]1CC=CC[C@H](c2ccc(F)cc2)NC(=O)[C@@H](Cc2ccccc2)N(C)C(=O)c2ccccc2O1 (mixture of isomers)
0.0

How about `Cc1cc(C(=O)Nc2ccc3c(c2)C(=O)N(C)[C@@H]2CC[C@@H](CC(=O)O)O[C@H]2CO3)no1` ?
0.0

Next record, please: `CO[C@@H]1CN(C)C(=O)c2cc(NC(=O)Nc3ccccc3F)ccc2OC[C@H](C)N(CCC(F)(F)F)C[C@H]1C`
0.0

Now consider `C[C@@H]1CN([C@@H](C)CO)C(=O)c2cc(NC(=O)Nc3cccc4ccccc34)ccc2O[C@@H](C)CCCCO[C@@H]1CN(C)Cc1ccc(C(F)(F)F)cc1` .
0.0

Here is the next compound: CC(C)[C@@H]1CC=CC[C@@H](C)Oc2ccccc2C(=O)N(C)[C@H](Cc2ccccc2)C(=O)N1 (mixture of isomers)
0.0

Now this one: `COc1ccccc1C#Cc1ccc([C@@H]2[C@@H](CO)N3CCCCN(C(=O)C4CCC4)C[C@H]23)cc1`
0.0

What do you get for `COCC#Cc1ccc([C@H]2[C@@H](CO)N3CCCCN(Cc4cccnc4)C[C@H]23)cc1` ?
0.0

Now the compound `CO[C@@H](CN(C)S(=O)(=O)c1ccc(F)cc1)[C@H](C)CN(Cc1ccccc1Cl)[C@H](C)CO`
0.0

Would you kindly repeat that for CC(C)[C@@H]1CC=CC[C@H](C)Oc2ccccc2C(=O)N(C)[C@@H](Cc2ccccc2)C(=O)N1 (mixture of isomers) ?
0.0

Another compound to look at: `COc1ccccc1C(=O)Nc1ccc2c(c1)C(=O)N(C)C[C@H](OC)[C@H](C)CN(C(C)=O)[C@H](C)CO2`
0.0

Could you do the same for `O=S(=O)(c1ccccc1)N1CCCCN2[C@@H](CO)[C@H](c3ccc(C#CC4CCCC4)cc3)[C@@H]2C1` , please?
0.0

Quick one: `COCC(=O)N1CC[C@@H]2[C@@H](CO)Nc3ccc(C#Cc4ccc(F)cc4)cc3[C@@H]21`
0.0

How about `CO[C@@H]1CN(C)C(=O)c2cc(NS(=O)(=O)c3ccccc3C)ccc2OC[C@@H](C)N(S(=O)(=O)c2ccccc2)C[C@H]1C` ?
1.0

Item: `COc1ccc2c3c(n(C)c2c1)[C@@H](CO)N(CC1CC1)CC31CN(S(=O)(=O)c2cn(C)cn2)C1`
0.0

Cool, now `CCCN1C[C@H](C)[C@@H](OC)CN(C)C(=O)c2cc(NS(=O)(=O)c3ccccc3)ccc2OC[C@H]1C`
0.0

Then CC(C)[C@H]1C(=O)N[C@H](c2cccc(Cl)c2)CC=CC[C@H](C)Oc2ccccc2C(=O)N1C (mixture of isomers) ?
0.0

One more compound: `CCS(=O)(=O)N1CC2(CN(C(=O)c3ccc(F)cc3)[C@@H](CO)c3[nH]c4cc(OC)ccc4c32)C1`
0.0

One more compound: C[C@@H]1CC=CC[C@H](c2ccc(F)cc2)NC(=O)[C@@H](Cc2ccccc2)N(C)C(=O)c2ccccc2O1 (mixture of isomers)
1.0

====

test_details: YAP1 pathway inhibitors via CTGF transcript, primary screen, DLD1 colon cancer cells, RT-qPCR, single point (AID 743449);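 also: 0% = neutral control wells and 100% = dasatinib control wells; higher means stronger suppression of CTGF expression like dasatinib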
test_context: DLD1 CTGF mRNA qPCR, 24 h; at 12.5 µM; hits give high values
Screen size: about 9,900 compounds; about 90 (0.9%) were called active. Not shown: some 2% with an inconclusive outcome. The sample as a whole holds a higher share of actives than the screen did.
Decision: inhibition compared against -20%; not below it gives rule met, below it gives rule not met.

Item `OC[C@@H]1[C@H](c2ccc(C#Cc3ccccc3F)cc2)[C@@H]2CN(CC3CCOCC3)CCCCN12` with inhibition of -20% or above?
rule not met

Now try `COc1cccc(S(=O)(=O)N[C@H]2CC[C@H](CC(=O)NC3Cc4ccccc4C3)O[C@H]2CO)c1` .
rule met

Then this compound: `C[C@@H]1CN([C@H](C)CO)C(=O)c2ccccc2-c2ccccc2CO[C@H]1CN(C)C(=O)[C@@H]1CCCN1C`
rule met

Also check `CO[C@H]1CC[C@H]2CCOc3c(C#N)cccc3C(=O)N(C)C[C@@H](OC)[C@@H](C)C(=O)N(C)C[C@H]1O2`
rule met

Now give it for `C[C@H](CO)N1C[C@H](C)[C@H](CN(C)C(=O)c2cc(-c3ccccc3)on2)OCc2cnnn2CCCC1=O` too.
rule met

Entry to check: `C[C@H](CO)N1C[C@H](C)[C@@H](CN(C)Cc2cccc(C(F)(F)F)c2)OCc2cnnn2CCCC1=O`
rule not met

Moving on to `COc1cccc(C(=O)Nc2ccc3c(c2)C(=O)N(C)[C@@H]2CC[C@H](CC(=O)N[C@@H](C)c4ccccc4)O[C@@H]2CO3)c1`
rule not met

Now the same for `C[C@@H]1CN([C@@H](C)CO)C(=O)CCCn2nncc2CO[C@H]1CN(C)C(=O)c1cc(-c2ccccc2)on1`
rule not met

Further, for `C[C@H]1CN([C@@H](C)CO)C(=O)c2ccccc2-c2ccccc2CO[C@H]1CN(C)Cc1ccccc1C(F)(F)F` ?
rule met

Thanks! And `COc1cccc(C#Cc2ccc3c(c2)O[C@@H](CN(C)C(=O)CN2CCOCC2)[C@@H](C)CN([C@@H](C)CO)S3(=O)=O)c1` ?
rule met

Request: `COCc1cn(CC[C@@H]2CC[C@@H](NC(=O)Nc3c(C)noc3C)[C@@H](CO)O2)nn1`
rule met

Also check `O=C(Nc1ccc(F)cc1)N1CC(=O)N2[C@H](CO)[C@@H](c3ccc(C#Cc4cccnc4)cc3)[C@@H]2C1`
rule met

What do you have for `COc1ccc(C#Cc2ccc3c(c2)[C@H]2[C@H](CCN2S(=O)(=O)c2ccccc2C)[C@@H](CO)N3C)cc1` ?
rule met

Check `CCS(=O)(=O)Nc1ccc2c(c1)C(=O)N(C)[C@H]1CC[C@H](CC(=O)NCc3ccc(OC)cc3)O[C@@H]1CO2` too.
rule not met

====

test_details: YAP1 pathway inhibitors via CTGF transcript, primary screen, DLD1 colon cancer cells, RT-qPCR, single point (AID 743449);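 also: 0% = neutral control wells and 100% = dasatinib control wells; higher means stronger suppression of CTGF expression like dasatinib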
test_context: DLD1 CTGF mRNA qPCR, 24 h; at 12.5 µM; hits give high values
In all, about 9,900 compounds went through this assay and about 90 (0.9%) were called active. Roughly 2% stayed inconclusive and do not appear here. The entries come from a sample that favours actives as a whole.
measured_metric: inhibition

Which inhibition value belongs to `O=C(c1cccc(F)c1)N1CCCCN2[C@H](C1)[C@@H](c1ccc(C#CC3(O)CCCC3)cc1)[C@@H]2CO` ?
30.5% (inactive)

Another molecule to look at: `C[C@H](CO)N1C[C@H](C)[C@@H](CN(C)S(=O)(=O)c2ccc([N+](=O)[O-])cc2)OCc2ccccc2-c2c(n(C)c3ccccc23)C1=O`
63.8% (active)

Another molecule to check: `COc1ccc([C@@H]2C/C=C\C[C@@H](c3ccc4c(c3)OCO4)NC(=O)[C@H](c3ccccc3)CC(=O)N2)c(OC)c1`
31% (inactive)

// next record `C[C@@H]1CN([C@@H](C)CO)C(=O)c2cccc(NS(=O)(=O)c3ccc(F)cc3)c2O[C@@H]1CN(C)Cc1ccc(Cl)c(Cl)c1`
-11.4% (inactive)

How about this molecule: `O=C(C[C@@H]1CC[C@H]2[C@@H](COC[C@H](O)CN2C(=O)Nc2ccc(Cl)cc2)O1)NCC1CCCCC1`
4.31% (inactive)

Field entry: `COc1cccc(-c2ccc([C@@H]3[C@@H](C#N)N(C(=O)Cc4ccncc4)[C@@H]3CO)cc2)c1`
50.4% (active)

// next record `O=C(CC1CC1)N1CC(=O)N2[C@H](CO)[C@@H](c3ccc(/C=C/c4ccccc4)cc3)[C@@H]2C1`
24.1% (inactive)

Entry to check: `C[C@@H]1CN([C@H](C)CO)C(=O)c2ccccc2-c2ccccc2CO[C@@H]1CN(C)Cc1ccccc1C(F)(F)F`
69.6% (active)

Param item: `CS(=O)(=O)N1CC(=O)N2[C@H](CO)[C@@H](c3ccc(C#Cc4ccc(F)cc4)cc3)[C@H]2C1`
43.4% (inactive)

Try `O=C(CC1CC1)N1CC(=O)N2[C@H](C1)[C@@H](c1ccc(/C=C/c3ccccc3)cc1)[C@@H]2CO` next.
16.9% (inactive)

Try this molecule too: `COc1ccc2c3c(n(C)c2c1)[C@@H](CO)N(C(C)=O)CC31CN(S(=O)(=O)c2ccccc2)C1`
1.07% (inactive)

And the next one, `COc1ccc2c3c([nH]c2c1)[C@H](CO)N(C(=O)c1ccccn1)CC31CCN(S(C)(=O)=O)CC1` ?
-21.9% (inactive)

Next molecule: `C[C@@H]1CN([C@@H](C)CO)C(=O)c2c(c3ccccc3n2C)-c2ccccc2CO[C@H]1CN(C)S(=O)(=O)c1ccc([N+](=O)[O-])cc1`
7.85% (inactive)

Thanks! And `O=C(c1cccc(F)c1)N1CCCCN2[C@@H](CO)[C@H](c3ccc(C#CC4(O)CCCC4)cc3)[C@@H]2C1` ?
68.7% (active)

Another: `O=C(NC[C@H]1N[C@H](CO)[C@@H]1c1ccc(-c2cncnc2)cc1)C1CCCCC1`
-7.65% (inactive)

Follow-up entry: `COc1cccc(-c2ccc([C@H]3[C@@H](CO)N(C(=O)Cc4ccncc4)[C@H]3C#N)cc2)c1`
-2.53% (inactive)

Ok, now `O=C(C[C@H]1CC[C@H]2[C@@H](COC[C@@H](O)CN2C(=O)c2ccc(F)cc2)O1)N1CCCCC1`
-4.99% (inactive)

Now the same for `O=C(C[C@H]1CC[C@@H](NC(=O)c2cccnc2)[C@@H](CO)O1)NCc1ccc(Cl)c(Cl)c1`
26.4% (inactive)

Moving on to `O=C(C[C@@H]1CC[C@@H]2[C@H](COC[C@@H](O)CN2C(=O)c2cnccn2)O1)N1CCN(c2ccccc2)CC1`
-2.5% (inactive)

Now give it for `C[C@H]1CN([C@@H](C)CO)C(=O)CCCn2nncc2CO[C@H]1CN(C)C(=O)Nc1ccc2c(c1)OCCO2` too.
-11.1% (inactive)

Now consider `CS(=O)(=O)N1CC(=O)N2[C@H](C1)[C@H](c1ccc(C#Cc3ccc(F)cc3)cc1)[C@@H]2CO` and answer again.
-7.23% (inactive)

Repeat for the following molecule: `C[C@H](CO)N1C[C@H](C)[C@H](CN(C)Cc2ccccc2C(F)(F)F)OCc2ccccc2-c2ccccc2C1=O`
26.5% (inactive)

Field entry: `C[C@H]1CN([C@@H](C)CO)C(=O)c2c(c3ccccc3n2C)-c2ccccc2CO[C@@H]1CN(C)S(=O)(=O)c1ccc([N+](=O)[O-])cc1`
23.9% (inactive)

Same question, `Cn1cnc(S(=O)(=O)N[C@@H]2CC[C@H](CC(=O)NCC3CCCCC3)O[C@H]2CO)c1` this time
-20.2% (inactive)

Here is the next molecule: `C[C@@H]1CN([C@@H](C)CO)C(=O)c2ccccc2-c2ccccc2CO[C@H]1CN(C)S(=O)(=O)c1cn(C)cn1`
-9.13% (inactive)
